Items are presented alongside their recorded pEC50.
Target: Full Length hPPARβ/δ (Homo sapiens)
Construct: Full Length; expressed in transfected cells; host or cells: Cos cells
Test: Full length hPPARβ/δ transfection assay
Assay type: cell-based
Conditions: full length receptor; scale 1-5; read-out: Full Length hPPAR β/δ EC50 (scaled number)
Experimental: Transient transfection assays. Cos cells were seeded in 60-mm dishes at a density of 5.5×10^5 cells/dish in Dulbecco's modified Eagle's medium (DMEM) supplemented with 10% fetal calf serum (FCS) and incubated at 37° C. for 24 hours before transfection. Cells were transfected in Opti-MEM (Gibco; Invitrogen, Carlsbad, Calif.) without FCS for 3 hours at 37° C., using polyethylenimine, with reporter and expression plasmids. […]
pEC50: −log10 of the molar value.

These recorded examples may help you get a feel for the data.
molecule | target | pEC50
CCCCCCCn1c(COC(=O)c2ccc(SC(C)(C)C(=O)O)cc2)nn(Cc2ccc(C)cc2)c1=O [Compound 191] | Full Length hPPARβ/δ (Homo sapiens) | 6.70 to 7.29
CCCCCCCCn1c(COC(=O)c2ccc(SC(C)(C)C(=O)O)cc2)nn(Cc2ccc(C)cc2)c1=O [Compound 161] | Full Length hPPARβ/δ (Homo sapiens) | 6.00 to 6.70
Cn1nc(-c2ccccc2)cc1COC(=O)c1ccc(SC(C)(C)C(=O)O)cc1 [Compound 1] | Full Length hPPARβ/δ (Homo sapiens) | < 6.00

Value of pEC50 reported for the molecule CCCCCCn1c(COC(=O)c2ccc(SC(C)(C)C(=O)O)cc2)nn(Cc2ccc(C)cc2)c1=O [Compound 160] is 6.00 to 6.70

###

Listing of recorded pEC50 by entry.
Target: Gal-4 hPPARβ/δ (Homo sapiens, UniProt Q03181)
Construct: Plasmids pGal4-hPPARα, pGal4-hPPARγ, pGal4-hPPARδ and pG5-TK-pGL3 were constructed as previously described by Staels, Bart, et al., Nature 1998 Jun; 25
Sequence (Q03181 171-441 limits assumed): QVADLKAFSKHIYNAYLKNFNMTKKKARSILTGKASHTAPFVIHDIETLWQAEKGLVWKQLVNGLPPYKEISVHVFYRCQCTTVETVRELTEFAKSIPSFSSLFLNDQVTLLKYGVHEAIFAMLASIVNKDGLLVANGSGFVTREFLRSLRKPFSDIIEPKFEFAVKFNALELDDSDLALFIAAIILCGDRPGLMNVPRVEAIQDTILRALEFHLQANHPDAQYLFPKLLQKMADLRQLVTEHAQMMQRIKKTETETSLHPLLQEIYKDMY
Experiment: Gal4-hPPARδ transient transfection reporter assay in Cos cells
Settings: luciferase reporter, 24 hours with compound, scale 1-5, read-out: Gal-4 hPPAR β/δ EC50 (scaled number)
pEC50: −log10 of the molar value.

Check out these entries, answers already filled in.
smi | target | result
C[C@@H](OC(=O)c1ccc(SC(C)(C)C(=O)O)cc1)c1cn(Cc2ccc(OC(F)(F)F)cc2)nn1 | Gal-4 hPPARβ/δ (Homo sapiens, UniProt Q03181) | < 6.00
Cn1nc(-c2ccccc2)cc1COC(=O)c1ccc(SC(C)(C)C(=O)O)cc1 | Gal-4 hPPARβ/δ (Homo sapiens, UniProt Q03181) | < 6.00
CCCn1c(COC(=O)c2ccc(SC(C)(C)C(=O)O)cc2)nn(Cc2ccc(C(C)(C)C)cc2)c1=O | Gal-4 hPPARβ/δ (Homo sapiens, UniProt Q03181) | < 6.00
CCCn1c(COC(=O)c2ccc(OC(C)(C)C(=O)O)c(OC)c2)nn(Cc2ccc(C(C)(C)C)cc2)c1=O | Gal-4 hPPARβ/δ (Homo sapiens, UniProt Q03181) | < 6.00
CCCCCCCn1c(COC(=O)c2ccc(SC(C)(C)C(=O)O)cc2)nn(Cc2ccc(C(C)(C)C)cc2)c1=O | Gal-4 hPPARβ/δ (Homo sapiens, UniProt Q03181) | < 6.00

Entry CC(C)(Sc1ccc(C(=O)OCc2cnn(Cc3ccc(OC(F)(F)F)cc3)c2)cc1)C(=O)O , Gal-4 hPPARβ/δ (Homo sapiens, UniProt Q03181) data, pEC50 value: < 6.00

Form field pEC50 for item COc1ccc(Cn2cc(COC(=O)c3ccc(SC(C)(C)C(=O)O)cc3)cn2)cc1 on Gal-4 hPPARβ/δ (Homo sapiens, UniProt Q03181): < 6.00

###

biological target: Gal-4 hPPARγ (Homo sapiens, UniProt P37231); construct: Plasmids pGal4-hPPARα, pGal4-hPPARγ, pGal4-hPPARδ and pG5-TK-pGL3 were constructed as previously described by Staels, Bart, et al., Nature 1998 Jun; 25; test: Gal4-hPPARγ transient transfection reporter assay in Cos cells; details: luciferase reporter, 24 hours with compound, scale 1-5, read-out: Gal-4 hPPAR γ EC50 (scaled number)
measured property: EC50

smi | result
CC(C)(Sc1ccc(C(=O)OCc2cnn(Cc3ccc(-c4ccccc4)cc3)c2)cc1)C(=O)O | > 1 µM
CCCn1c([C@@H](C)OC(=O)c2ccc(SC(C)(C)C(=O)O)cc2)nn(Cc2ccc(C)cc2)c1=O | > 1 µM
CCCCCCCn1c(COC(=O)c2ccc(SC(C)(C)C(=O)O)cc2)nn(Cc2ccc(C)cc2)c1=O | 0.051 to 0.2 µM

Now consider the entry below.
Reported EC50 for C[C@@H](Cc1cn(Cc2ccc(C(C)(C)C)cc2)nn1)OC(=O)c1ccc(SC(C)(C)C(=O)O)cc1 was > 1 µM

###

In this section we review reported pEC50 values for a set of molecules.
target: Full Length hPPARγ (Homo sapiens); construct: Full Length; test: Full length hPPARγ transfection assay; settings: full length receptor; scale 1-5; read-out: Full Length hPPAR γ EC50 (scaled number)
Sequence (P37231 whole entry): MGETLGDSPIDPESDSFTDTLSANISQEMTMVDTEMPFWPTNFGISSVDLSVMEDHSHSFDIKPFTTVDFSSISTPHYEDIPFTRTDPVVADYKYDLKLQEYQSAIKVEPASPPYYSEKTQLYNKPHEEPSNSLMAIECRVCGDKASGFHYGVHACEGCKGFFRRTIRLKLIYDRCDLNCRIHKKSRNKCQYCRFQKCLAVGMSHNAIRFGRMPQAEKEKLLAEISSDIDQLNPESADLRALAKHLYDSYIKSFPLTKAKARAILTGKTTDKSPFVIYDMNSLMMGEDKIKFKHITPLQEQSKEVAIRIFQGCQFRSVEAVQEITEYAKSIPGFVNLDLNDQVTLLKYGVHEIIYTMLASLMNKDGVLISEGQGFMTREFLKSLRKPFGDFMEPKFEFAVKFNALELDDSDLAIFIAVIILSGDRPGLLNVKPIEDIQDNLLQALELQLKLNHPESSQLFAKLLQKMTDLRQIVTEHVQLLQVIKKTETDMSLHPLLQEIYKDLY
pEC50: −log10 of the molar value.

Example results:
smi | pEC50
CCCn1c(COC(=O)c2ccc(OC(C)(C)C(=O)O)cc2)nn(Cc2ccc(OC(F)(F)F)cc2)c1=O | < 6.00
CC(C)c1ccc(-n2cc(COC(=O)c3ccc(SC(C)(C)C(=O)O)cc3)nn2)cc1 | 6.00 to 6.70
CCCCCCCn1c(COC(=O)c2ccc(SC(C)(C)C(=O)O)cc2)nn(Cc2ccc(C)cc2)c1=O | 6.70 to 7.29
CCCCCCCn1c(COC(=O)c2ccc(SC(C)(C)C(=O)O)cc2)nn(Cc2ccc(C(C)(C)C)cc2)c1=O | 6.70 to 7.29

Readout pEC50 for CCCCCCCCn1c(COC(=O)c2ccc(OC(C)(C)C(=O)O)c(OC)c2)nn(Cc2ccc(C)cc2)c1=O , test system Full Length hPPARγ (Homo sapiens), was 6.70 to 7.29

Param item: CCCCCCCn1c(COC(=O)c2ccc(OC(C)(C)C(=O)O)c(OC)c2)nn(Cc2ccc(C(C)(C)C)cc2)c1=O ; param system: Full Length hPPARγ (Homo sapiens); output pEC50: 6.70 to 7.29

Kindly note: Full Length hPPARγ (Homo sapiens), Cn1nc(-c2ccccc2)cc1COC(=O)c1ccc(SC(C)(C)C(=O)O)cc1 , pEC50 value reported: 6.70 to 7.29

###

assay: Metabolism studies using human liver microsomal preparations; format: in vitro ADME; conditions: comparison of half life with and without NADPH: Esterase, CYP or Mixed
measured property: HLMs Predominant Enzyme

compound | result
CCCCCCCCn1c(COC(=O)c2ccc(OC(C)(C)C(=O)O)c(OC)c2)nn(Cc2ccc(C)cc2)c1=O [Compound 186] | CYP
CCCCCCCn1c(COC(=O)c2ccc(OC(C)(C)C(=O)O)cc2)nn(Cc2ccc(C)cc2)c1=O [Compound 192] | Mixed
CCCCCCn1c(COC(=O)c2ccc(SC(C)(C)C(=O)O)cc2)nn(Cc2ccc(C(C)(C)C)cc2)c1=O [Compound 187] | Mixed

###

Entries and their EC50 values follow.
molecular target: Gal-4 hPPARα (Homo sapiens); construct: Plasmids pGal4-hPPARα, pGal4-hPPARγ, pGal4-hPPARδ and pG5-TK-pGL3 were constructed as previously described by Staels, Bart, et al., Nature 1998 Jun; 25; assay: Gal4-hPPARα transient transfection reporter assay in Cos cells; settings: luciferase reporter, 24 hours with compound, scale 1-5, read-out: Gal-4 hPPAR α EC50 (scaled number)
Sequence (Q07869 200-468 limits assumed): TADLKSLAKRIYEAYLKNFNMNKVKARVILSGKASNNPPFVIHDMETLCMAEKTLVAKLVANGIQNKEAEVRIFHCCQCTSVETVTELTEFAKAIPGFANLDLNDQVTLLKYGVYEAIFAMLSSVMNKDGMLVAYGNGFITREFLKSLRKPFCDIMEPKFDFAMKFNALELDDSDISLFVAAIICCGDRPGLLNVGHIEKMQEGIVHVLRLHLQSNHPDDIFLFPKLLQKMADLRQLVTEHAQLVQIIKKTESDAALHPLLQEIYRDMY

Would you please look over these solved cases?
smi | EC50
CC(C)(Sc1ccc(C(=O)OCc2cnn(Cc3ccc4ccccc4c3)c2)cc1)C(=O)O | 1 to 50 nM
CCCCCCn1c(COC(=O)c2ccc(OC(C)(C)C(=O)O)cc2)nn(Cc2ccc(C(OC)(C(F)(F)F)C(F)(F)F)cc2)c1=O | 1 to 50 nM
CCCCCCCn1c(COC(=O)c2ccc(SC(C)(C)C(=O)O)cc2)nn(Cc2ccc(C)cc2)c1=O | 1 to 50 nM

For reference, reported EC50 for Cn1nc(-c2ccccc2)cc1COC(=O)c1ccc(OC(C)(C)C(=O)O)cc1 stands at 201 to 999 nM
